System: CCRIS mutagenicity, Ames/micronucleus/aberration tests
Test: CCRIS mutagenicity studies
Settings: Test System: AMES SALMONELLA TYPHIMURIUM; Strain/Indicator: TA100; Metabolic Activation: RAT, LIVER, S-9, KANECHLOR 500; Method: PREINCUBATION
Calls of active or inactive are those of the source. How the calls were made is not given here.
Respond only with the outcome that fits, drawn from active, inactive

Here are 5 compounds together with their reported answers.
Compound string: O=[N+]([O-])c1ccc(Cl)c(Cl)c1
Label class: active

Compound string: Cc1ccc(C)c([N+](=O)[O-])c1
Label class: active

Compound string: Nc1c(Cl)cc([N+](=O)[O-])cc1[N+](=O)[O-]
Label class: active

Compound string: CCOP(=S)(OCC)Oc1ccc([N+](=O)[O-])cc1
Label class: active

Compound string: O=[N+]([O-])c1cccc(Br)c1
Label class: active

Write down the call the test reported for this compound. Item: O=[N+]([O-])c1ccccc1CCl
active

And the next one, Cc1ccc([N+](=O)[O-])c(C)c1[N+](=O)[O-] ?
active

And the next one, Cc1cccc([N+](=O)[O-])c1C ?
inactive

And the next one, CC(C)[N+](=O)[O-] ?
active

And the next one, CCC[N+](=O)[O-] ?
inactive

---

System: CCRIS mutagenicity, Ames/micronucleus/aberration tests
Assay: CCRIS mutagenicity studies
Settings: Test System: AMES SALMONELLA TYPHIMURIUM; Strain/Indicator: TA98; Metabolic Activation: NONE; Method: STANDARD PLATE
The source made the active and inactive calls. No rule for the calls is given here.
Respond only with the outcome that fits, drawn from active, inactive

Compound string: ONc1ccc(Cl)c(Cl)c1
Label class: inactive
--
Compound string: CC(=O)Nc1snc2ccc(Cl)cc12
Label class: inactive
--
Compound string: Cc1cccc(C)c1C
Label class: active
--
Compound string: O=[N+]([O-])c1ccc2c(c1)Oc1cc(Cl)c(Cl)cc1O2
Label class: active
--
Compound string: COC1=CC(=O)c2c(nc(C)c3c2[nH]c2ccccc23)C1=O
Label class: active

Write down the call the test reported for this compound. Item: C=CC#N
inactive

And the next one, CCN(CC)C(=S)SSC[C@H](NC(C)=O)C(=O)O ?
inactive

---

Tested on: CCRIS mutagenicity, Ames/micronucleus/aberration tests
Assay: CCRIS mutagenicity studies
Conditions: Test System: AMES SALMONELLA TYPHIMURIUM; Strain/Indicator: TA1535; Metabolic Activation: S-9; Method: PREINCUBATION
Active and inactive are the calls of the source. The rule behind the calls is not given here.
Respond only with the outcome that fits, drawn from active, inactive

Write down the call the test reported for this compound. Item: C[C@]1(Cn2ccnn2)[C@H](C(=O)O)N2C(=O)C[C@H]2S1(=O)=O
inactive

---

Tested on: CCRIS mutagenicity, Ames/micronucleus/aberration tests
Assay: CCRIS mutagenicity studies
Settings: Test System: CHINESE HAMSTER V-79; Strain/Indicator: V-79/6-THIOGUANINE; Metabolic Activation: NONE
Activity calls are given as the source filed them. How the calls were made is not given here.
Respond only with the outcome that fits, drawn from active, inactive

Molecule: C=CCO
Label class: active

Molecule: Oc1ccc(O)c(O)c1
Label class: active

Now look at this entry.
Write down the call the test reported for this molecule. Item: OC1=C2O[C@@H]2CC[C@H]1O
active

---

Test system: CCRIS mutagenicity, Ames/micronucleus/aberration tests
Assay: CCRIS mutagenicity studies
Conditions: Test System: AMES SALMONELLA TYPHIMURIUM; Strain/Indicator: TA92; Metabolic Activation: NONE; Method: SPOT TEST
The source made the active and inactive calls. How the calls were made is not given here.
Respond only with the outcome that fits, drawn from yes (1) = active, no (0) = inactive

Write down the call the test reported for this compound. Item: CC(C)(O)[C@H]1Cc2cc3ccc(=O)oc3cc2O1
yes (1)

And the next one, CC(C)=CCOc1c2occc2cc2ccc(=O)oc12 ?
yes (1)

And the next one, CC1(C)O[C@H]1COc1c2ccoc2cc2oc(=O)ccc12 ?
no (0)

And the next one, C=CC(C)(C)c1cc2cc3c(cc2oc1=O)OC(C(C)(C)O)C3 (centres undefined) ?
no (0)
